# target_desc: T1, mouse tissue factor pathway inhibitor (TFPI) (mouse, UniProt O54819 29-289, limits assumed)
# T1 construct: bought; also called mTFPI; murine TFPI
# T1 sequence (looked up): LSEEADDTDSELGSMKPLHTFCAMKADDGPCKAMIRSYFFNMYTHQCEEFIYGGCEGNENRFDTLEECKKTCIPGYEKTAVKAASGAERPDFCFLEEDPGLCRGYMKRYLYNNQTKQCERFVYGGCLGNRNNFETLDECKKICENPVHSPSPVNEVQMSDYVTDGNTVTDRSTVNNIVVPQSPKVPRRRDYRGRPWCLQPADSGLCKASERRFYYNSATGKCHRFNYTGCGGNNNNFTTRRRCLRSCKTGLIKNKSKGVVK
# assay_info: SPR, TFPI immobilized
measurement_kind: koff (s⁻¹)
One number for each entry, in s⁻¹.

// solved cases for koff follow
{"binder": "2A8-g216 (HC S31V+I51D+S55R+K99V/LC D1S+I2Y+A13S+S21T+R28P+N29K+Y48F+N51S+E80M+D91L+D92S+V94T+V96W) (Fab, V domains shown) VH: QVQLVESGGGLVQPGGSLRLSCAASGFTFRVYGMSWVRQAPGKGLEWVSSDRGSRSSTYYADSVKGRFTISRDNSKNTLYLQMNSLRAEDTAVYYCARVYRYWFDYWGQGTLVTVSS VL: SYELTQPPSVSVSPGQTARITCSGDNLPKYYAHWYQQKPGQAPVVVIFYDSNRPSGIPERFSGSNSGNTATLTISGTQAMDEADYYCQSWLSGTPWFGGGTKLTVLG", "measurement_kind": "koff", "measured_number": "7.78e-05"}
{"binder": "2A8 wild-type Fab (Fab, V domains shown, Fab with c-myc (or HA, or none) and 6xHis tag at the C-terminus of the heavy chain; also called 2A8wt; 2A8 wt) VH: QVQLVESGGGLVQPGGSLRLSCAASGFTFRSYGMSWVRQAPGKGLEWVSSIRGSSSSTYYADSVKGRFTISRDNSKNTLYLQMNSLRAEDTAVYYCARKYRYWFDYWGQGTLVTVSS VL: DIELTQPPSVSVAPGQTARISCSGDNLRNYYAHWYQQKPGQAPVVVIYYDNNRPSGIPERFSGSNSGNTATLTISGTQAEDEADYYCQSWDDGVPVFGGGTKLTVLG", "measurement_kind": "koff", "measured_number": 0.0031}

Now let's try a different one.
# koff (binder: 2A8-227 (HC S35D+K99L/LC Y48F+D91L+V96W) (Fab, V domains shown) VH: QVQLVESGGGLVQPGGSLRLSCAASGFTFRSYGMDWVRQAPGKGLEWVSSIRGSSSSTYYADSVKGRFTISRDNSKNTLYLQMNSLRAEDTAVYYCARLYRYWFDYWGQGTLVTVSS VL: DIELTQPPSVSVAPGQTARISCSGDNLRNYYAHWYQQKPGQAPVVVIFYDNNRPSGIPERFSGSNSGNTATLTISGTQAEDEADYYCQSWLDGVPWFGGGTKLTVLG ) is 0.00106
